- System: giant foxtail
- method_description: Test B pre/postemergence giant foxtail
- Format: in vivo, Setaria faberii
- condition_parameters: Preemergence, Rate 125 g/ha; scale 0 to 10 (0 no effect, 10 complete control)
observed_property: Plant response rating, Giant foxtail

# count of solved cases: 3
query_smiles=Cc1cccc(Cl)c1-n1c(=O)on(C(=O)N(c2ccc(F)cc2)C(C)C)c1=O observed_property="Plant response rating, Giant foxtail" readout_value=3
query_smiles=CCn1c(=O)on(C(=O)N(c2ccccc2)C(C)C)c1=O observed_property="Plant response rating, Giant foxtail" readout_value=10
query_smiles=Cc1c(Cl)cccc1-n1c(=O)on(C(=O)N(c2ccc(F)cc2)C(C)C)c1=O observed_property="Plant response rating, Giant foxtail" readout_value=8

Suppose we examine the compound `CCN(CC)C(=O)n1oc(=O)n(Cc2cccs2)c1=O` ; what Plant response rating, Giant foxtail value has been reported?
0

###

- Tested on: crabgrass
- method_description: Test B pre/postemergence crabgrass
- Format: in vivo, Digitaria sanguinalis
- condition_parameters: Preemergence, Rate 62 g/ha; scale of 0 to 10 where 0 is no effect and 10 is complete control
Readings of Crabgrass plant response rating for the listed compounds
// no unit string in output, number only

Solved cases below.
compound="COCC(OC)n1c(=O)on(C(=O)N(c2ccccc2)C(C)C)c1=O (centres unmarked) [Compound 734]" observed_property="Crabgrass plant response rating" readout_value=9
compound="Cc1ccc(N(C(=O)n2oc(=O)n(-c3ccc4ccccc4c3)c2=O)C(C)C)cc1 [Compound 334]" observed_property="Crabgrass plant response rating" readout_value=0
compound="CC(=O)OCC(CCl)n1c(=O)on(C(=O)N(c2ccc(F)cc2F)C(C)C)c1=O (racemic) [Compound 708]" observed_property="Crabgrass plant response rating" readout_value=6
compound="Cc1ccccc1-n1c(=O)on(C(=O)N(c2ccc(Br)cc2)C(C)C)c1=O [Compound 175]" observed_property="Crabgrass plant response rating" readout_value=5
compound="CCc1cccc(C)c1-n1c(=O)on(C(=O)N(c2ccc(F)cc2)C(C)C)c1=O [Compound 201]" observed_property="Crabgrass plant response rating" readout_value=0
compound="CC(C)N(C(=O)n1oc(=O)n(C(C)C=O)c1=O)c1ccccc1 (centres unmarked) [Compound 693]" observed_property="Crabgrass plant response rating" readout_value=0
compound="CC(=O)NCCn1c(=O)on(C(=O)N(c2ccc(F)cc2)C(C)C)c1=O [Compound 727]" observed_property="Crabgrass plant response rating" readout_value=3

Attention now shifts to the item below.
For the compound Cc1nc(C)c(Cn2c(=O)on(C(=O)N(c3ccc(F)cc3)C(C)C)c2=O)s1 [Compound 232] , what Crabgrass plant response rating is on record?
5

###

- Tested on: sugar beet
- method_description: Test B pre/postemergence sugar beet
- Format: in vivo, Beta vulgaris
- condition_parameters: Preemergence, Rate 250 g/ha; scale 0 to 10, 0 is no effect, 10 is complete control
observed_property: Sugarbeets plant response rating
// return just the number, without any unit appended

Some compounds with known Sugarbeets plant response rating results, for comparison:
compound="CC(C)N(C(=O)n1oc(=O)n(CCl)c1=O)c1ccccc1 [Compound 423]" observed_property="Sugarbeets plant response rating" readout_value=0
compound="Cc1ccccc1-n1c(=O)on(C(=O)N(c2ccc(Br)cc2)C(C)C)c1=O [Compound 175]" observed_property="Sugarbeets plant response rating" readout_value=0
compound="C=CCn1c(=O)on(C(=O)N(c2ccc(F)cc2F)C(C)C)c1=O [Compound 151]" observed_property="Sugarbeets plant response rating" readout_value=10

Need Sugarbeets plant response rating of CCCn1c(=O)on(C(=O)N(c2ccc(F)cc2F)C(C)C)c1=O [Compound 130] , thanks.
10

Can you share its Sugarbeets plant response rating? I mean this compound: CC(=O)NCn1c(=O)on(C(=O)N(c2ccc(F)cc2)C(C)C)c1=O [Compound 473]
0

Can you look up the measured Sugarbeets plant response rating of CC(C)N(C(=O)n1oc(=O)n([C@H](C)c2ccccc2)c1=O)c1ccc(F)cc1 [Compound 179] for me?
0

Could you share which Sugarbeets plant response rating value was measured for Cc1ccccc1-n1c(=O)on(C(=O)N(c2ccc(Cl)cc2Cl)C(C)C)c1=O [Compound 185] ?
0

For the compound shown here, CC(C)N(C(=O)n1oc(=O)n(Cc2ccccc2Cl)c1=O)c1ccc(F)cc1 [Compound 140] , give the reported Sugarbeets plant response rating.
0

###

- System: giant foxtail
- method_description: Test B pre/postemergence giant foxtail
- Type: in vivo, Setaria faberii
- condition_parameters: Preemergence, Rate 250 g/ha
Giant foxtail plant response rating (0 to 10 scale) values, listed per item
// keep it numeric: no unit symbol after the value

molecule="CC(C)N(C(=O)n1oc(=O)n(CCC2OCCCO2)c1=O)c1ccccc1 [Compound 561]" readout_value=6
molecule="CC(C)N(C(=O)n1oc(=O)n(C[Si](C)(C)C)c1=O)c1ccccc1 [Compound 577]" readout_value=9
molecule="CC(C)N(C(=O)n1oc(=O)n(CCCCF)c1=O)c1ccc(F)cc1F [Compound 522]" readout_value=10

Could you tell me which Giant foxtail plant response rating (0 to 10 scale) is on file for CCC=CCn1c(=O)on(C(=O)N(c2ccccc2)C(C)C)c1=O [Compound 582] ?
8

GET /values?readout=Giant foxtail plant response rating (0 to 10 scale)&item= C=CCCCn1c(=O)on(C(=O)N(c2ccc(Cl)cc2)C(C)C)c1=O [Compound 546]
10

###

As shown below, each of these compounds has a reported Wheat plant response rating value.
- Tested on: wheat
- method_description: Test B pre/postemergence wheat
- Format: in vivo, Triticum aestivum
- condition_parameters: Preemergence, Rate 250 g/ha; scale 0 to 10, 0 is no effect, 10 is complete control
Reply with just the number.

compound="CSc1ccc(N(C(=O)n2oc(=O)n(-c3ccccc3C)c2=O)C(C)C)cc1 [Compound 205]" readout_value=0
compound="CCc1cccc(C)c1-n1c(=O)on(C(=O)N(c2ccc(F)cc2)C(C)C)c1=O [Compound 201]" readout_value=0
compound="CC(C)c1noc(C(C)C)c1-n1c(=O)on(C(=O)N(c2ccc(F)cc2)C(C)C)c1=O [Compound 135]" readout_value=0

Consider the compound shown here: CC(C)N(C(=O)n1oc(=O)n(CCCl)c1=O)c1ccccc1 [Compound 469] What is its recorded Wheat plant response rating?
3

Returns the measured Wheat plant response rating for the input compound. Input: Cc1ccccc1-n1c(=O)on(C(=O)N(c2ccc(Cl)cc2Cl)C(C)C)c1=O [Compound 185]
0

Which Wheat plant response rating is reported for this compound? CC(C)N(C(=O)n1oc(=O)n(C(C)C(=O)N(C)C)c1=O)c1ccccc1 (stereo not drawn) [Compound 479]
3

###

Soybean plant response rating overview
- Tested on: soybean
- method_description: Test B pre/postemergence soybean
- Format: in vivo, Glycine max
- condition_parameters: Rate 500 g/ha, Preemergence; scale 0 to 10 (0 no effect, 10 complete control)
Please respond with just the number, no unit label.

molecule=CC(C)N(C(=O)n1oc(=O)n(CCCCl)c1=O)c1ccc(Cl)cc1 experimental_system=soybean readout_value=3
molecule="COC(CCl)n1c(=O)on(C(=O)N(c2ccc(Cl)cc2)C(C)C)c1=O (stereo not shown)" experimental_system=soybean readout_value=0
molecule=CC(C)N(C(=O)n1oc(=O)n(C[C@H](C)Cl)c1=O)c1ccccc1 experimental_system=soybean readout_value=9

Consider the additional molecule presented here.
Can you share its Soybean plant response rating? I mean this molecule: COC(=O)C(c1ccccc1)n1c(=O)on(C(=O)N(c2ccccc2)C(C)C)c1=O (stereo not shown)
0

###

Reported Surinam grass plant response rating by item:
- Tested on: surinam grass
- method_description: Test D surinam grass
- Type: in vivo, Brachiaria decumbens
- condition_parameters: Rate 64 g/ha, Preemergence; 0 to 100 scale, 0 no injury, 100 complete control

Solved cases (3 shown):
molecule="C=CCn1c(=O)on(C(=O)N(c2ccc(F)cc2F)C(C)C)c1=O [Compound 151]" readout_value=85
molecule="CC(C)N(C(=O)n1oc(=O)n(C(C)C)c1=O)c1ccc(F)cc1 [Compound 131]" readout_value=85
molecule="CCCn1c(=O)on(C(=O)N(c2ccc(F)cc2F)C(C)C)c1=O [Compound 130]" readout_value=80

Okay, next one:
Look up Surinam grass plant response rating with surinam grass for this molecule: Cc1cccc(C)c1-n1c(=O)on(C(=O)N(c2ccc(F)cc2)C(C)C)c1=O [Compound 18]
0

###

- Tested on: giant foxtail
- method_description: Test B pre/postemergence giant foxtail
- Type: in vivo, Setaria faberii
- condition_parameters: Preemergence, Rate 250 g/ha; scale of 0 to 10 where 0 is no effect and 10 is complete control
Reported Plant response rating, Giant foxtail values for the following molecules.
Please give only the number in your answer, with no unit.

Below are worked cases with known answers.
molecule="Cc1cccc(C)c1-n1c(=O)on(C(=O)N(c2ccc(Cl)cc2)C(C)C)c1=O [Compound 47]" readout_value=3
molecule="CCN(C(=O)n1oc(=O)n(-c2c(C)cccc2C)c1=O)C1CCCCC1 [Compound 27]" readout_value=0
molecule="Cc1ccccc1-n1c(=O)on(C(=O)N(c2ccc([N+](=O)[O-])cc2)C(C)C)c1=O [Compound 44]" readout_value=0
molecule="CCn1c(=O)on(C(=O)N(c2ccccc2)C(C)C)c1=O [Compound 117]" readout_value=10
molecule="Cc1c(Cl)cccc1-n1c(=O)on(C(=O)N(c2ccc(F)cc2)C(C)C)c1=O [Compound 21]" readout_value=8

--- query ---
Would you kindly share the measured Plant response rating, Giant foxtail for Cc1cc(C)c(-n2c(=O)on(C(=O)N(c3ccc(F)cc3)C(C)C)c2=O)c(C)c1 [Compound 60] ?
4
